system: TDF; experiment: H1.0 immunofluorescence intensity relative to DMSO (% of DMSO); higher = stronger H1.0 induction, active = 120 or more; conditions: concentration: 10 µM; 24 h

compound	H1.0 immunofluorescence intensity
COc1c2ccoc2cc2oc(=O)ccc12	102
COc1cc(-c2oc3cc(O)cc(O)c3c(=O)c2OC2OC(CO)C(O)C(O)C2O)cc(OC)c1O (stereo not drawn) [Syringetine-3-glucoside]	101
Cl.NCCNC(=O)c1ncsc1-c1cccc(F)c1 [Ro 41-1049 hydrochloride]	97.4
Nc1nc(Cl)nc2c1ncn2C1OC(CO)C(O)C1F (stereo not drawn)	119
OCc1cc(C(O)CNCCCCCCOCCCCc2ccccc2)ccc1O (stereo not drawn)	110
NC(=O)c1ccc2[nH]ccc2c1	101
CCN(CCO)CCCC(C)Nc1ccnc2cc(Cl)ccc12.O=S(=O)(O)O (stereo not drawn)	102
NC1CONC1=O (racemic)	92
O=c1[nH]c(=O)n(C2CCCO2)cc1F (stereo not drawn)	99.6
CC12CCC(=O)C=C1C=CC1C2CCC2(C)C1CCC21CCC(=O)O1 (stereo not drawn)	89.7
CC(=O)NC(CSCC=C(C)CCC=C(C)CCC=C(C)C)C(=O)O (stereo not drawn)	97.2
CCCCCCCC/C=C\CCCCCCC(O)C(=O)O (stereo not drawn) [(9Z)-2-hydroxy-9-octadecenoic acid]	102
CCCCCN(C)CCC(O)(P(=O)(O)O)P(=O)(O)O [Ibandronate]	98.4
CCCCC(=O)N(Cc1ccc(-c2ccccc2-c2nn[nH]n2)cc1)[C@H](C(=O)O)C(C)C	93.7
CC1CCN(C(=O)CC#N)CC1N(C)c1ncnc2[nH]ccc12 (stereo not drawn)	89.1
CC(=Cc1ccc(C(=O)O)cc1)c1ccc2c(c1)C(C)(C)CCC2(C)C	89.4
O=C(Nc1ccc([N+](=O)[O-])cc1Cl)c1cc(Cl)ccc1O [Niclosamide]	104
COc1ccc2cc1Oc1ccc(cc1)CC1c3c(cc4c(c3Oc3cc5c(cc3OC)CCN(C)C5C2)OCO4)CCN1C (stereo not drawn)	108

---

tested on: HCC1569; assay: H1.0 immunofluorescence intensity relative to DMSO (% of DMSO); higher = stronger H1.0 induction, active = 140 or more; conditions: concentration: 10 µM; 24 h
Labels: class 1 (active), class 0 (inactive)

compound	classification
CC(C=CC1=C(C)CCCC1(C)C)=CC=CC(C)=CC(=O)O [13-cis-retinoic acid]	class 0
CN1CCCCC1CCN1c2ccccc2Sc2ccc(S(C)=O)cc21.O=S(=O)(O)c1ccccc1 (stereo not drawn) [Mesoridazine besylate]	class 0
CCCCCCCC/C=C\CCCCCCC(O)C(=O)O (stereo not drawn) [(9Z)-2-hydroxy-9-octadecenoic acid]	class 0
CC(F)(F)CN1CCOc2c(nn(-c3ccccc3Cl)c2-c2ccc(Cl)cc2)C1=O	class 0
Cc1cccc(-c2[nH]c(C(C)(C)C)nc2-c2ccc3c(c2)OCO3)n1.Cl	class 0
CCCCCCCCCCCCCCCC(O)C(CO)NC(C)=O (stereo not drawn) [C2 Dihydroceramide]	class 0
Cl.N=C(N=C(N)N)N1CCOCC1 [Moroxydine.HCl]	class 0
Cc1ccc(NC(=O)c2ccc(CN3CCN(C)CC3)cc2)cc1Nc1nc(-c2cccnc2)cs1	class 1

---

// values below are reported cell number
test system: HCC1569; experiment: cell number relative to DMSO (% of DMSO); higher = more cells (less growth inhibition / toxicity); conditions: concentration: 10 µM; 24 h
measurement_name: cell number

compound	tested_system	measurement_name	endpoint_value
CC1CCC2(C(=O)O)CCC3(C)C(=CCC4C5(C)CC(O)C(O)C(C)(CO)C5C(O)CC43C)C2C1C (centres undefined) [Madecassic acid]	HCC1569	cell number	105
CC(C)C(CO)Nc1nc(Nc2cccc(Cl)c2)c2ncn(C(C)C)c2n1 (centres undefined) [Purvalanol A]	HCC1569	cell number	68.8
CCCn1c(=O)c2[nH]c(-c3ccc(S(=O)(=O)O)cc3)nc2n(CCC)c1=O [1,3-Dipropyl-8-p-sulfophenylxanthine]	HCC1569	cell number	104
CCOC(=O)C12CC1C(=NO)c1ccccc1O2 (centres undefined)	HCC1569	cell number	100

The values you see were collected from the supplement of paper PMC7156485.
